# target: IL33 and ST2 binding (Homo sapiens);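 further: plate ELISA with coated Flag-tagged human IL-33 and His-tagged human ST2, bound ST2 detected by anti-His HRP and TMB absorbance at 450 nm, 2 h compound incubation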
# Sequence (O95760 112-270 limits assumed): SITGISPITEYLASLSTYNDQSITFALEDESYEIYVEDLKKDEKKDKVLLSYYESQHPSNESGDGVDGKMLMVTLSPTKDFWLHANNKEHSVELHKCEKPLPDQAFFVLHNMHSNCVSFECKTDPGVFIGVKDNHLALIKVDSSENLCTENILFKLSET
# conditionContext: 100 µM
Let's look at some molecules and their measured inhibition.
Value expressed in %; do not type the unit.

Completed entries (count: 6):
CC(C)N1CCN(C(=O)c2nc(-c3ccc(C(F)(F)F)cc3)oc2-c2ccccc2[N+](=O)[O-])CC1 [Compound 168]	-12
CCOC(=O)c1nc(-c2ccc(OC)cc2)oc1-c1ccc([N+](=O)[O-])cc1 [Compound 64]	35
CN1CCN(CCNC(=O)c2nc(-c3ccc(Cl)cc3)oc2-c2ccccc2)CC1 [Compound 245]	26
O=C(c1nc(-c2ccc(C(F)(F)F)cc2)oc1-c1ccccc1[N+](=O)[O-])N1CCN(CCO)CC1 [Compound 169]	7
CC(=O)N1CCN(CCNC(=O)c2nc(-c3ccc(C(F)(F)F)cc3)oc2-c2ccccc2[N+](=O)[O-])CC1 [Compound 284]	104
CN1CCN(CCNC(=O)c2nc(-c3ccc(OC(F)(F)F)cc3)oc2-c2ccccc2)CC1 [Compound 204]	36

Inquiry: Consider the molecule CN(C)CCNC(=O)c1nc(-c2ccccc2C(F)(F)F)oc1-c1ccccc1[N+](=O)[O-] [Compound 119] and give its measured inhibition.
Reply text: -14
